test.method.notes: qHTS Assay for Inhibitors of Influenza NS1 Protein Function; further: actives are rising curves; nearly all actives have a fitted effect of over 50% in size; further: potency means the concentration at half of the fitted maximal effect
setup.conditions: series mostly up to 46.1 µM
Among all 270,000 compounds or so, about 1,100 (0.41%) were called active. About 3% were inconclusive and are not listed. Only a selection was taken, and actives are over-represented in it overall.

compound	Potency
Cc1cc(=O)[nH]c(SCc2cc(Cl)ccc2OC(F)F)n1	3.16 µM (active)
CCC1CCCCN1CCCNC(=O)Cn1nc(-c2ccccc2)ccc1=O (stereo not drawn)	inactive
Cc1ccccc1C(=O)N1CCC(C(=O)Oc2ccc(C#N)cc2)CC1	inactive
Cc1cccc(Nc2nc(-c3ccccc3)cs2)n1	inactive
COCCN1C(=O)N(c2ccc(Cl)cc2)C(=O)C1CC(=O)Nc1cc(OC)cc(OC)c1 (stereo not drawn)	inactive
CCCOC1CCCN(C(=O)c2cc(COc3cncc(Cl)c3)on2)C1 (stereo not drawn)	inactive
Cc1ccc(-c2ccc(=O)n(CC(=O)NCCCN3CCCCC3)n2)cc1	3.55 µM (active)
Cn1c(NC(=O)c2ccccc2)nc2ccccc21	inactive

* * *

test.method.notes: qHTS Assay for Inhibitors of Influenza NS1 Protein Function; further: actives are rising curves; nearly all actives have a fitted effect of over 50% in size
setup.conditions: series mostly up to 46.1 µM
Description: NIH Chemical Genomics Center [NCGC] NIH Molecular Libraries Probe Centers Network [MLPCN] Assay Submitter (PI): Daniel Engel Influenza is a world-wide public health problem and emerging forms of the virus have the potential to cause a pandemic of equal or greater magnitude to the outbreaks recorded in 1918, 1957 or 1968. […] 9. Read plate using Viewlux protocol for optical density 600 (OD600) using excitation filter 600nm.
In all, about 270,000 compounds went through this assay and about 1,100 (0.41%) were called active. Another 3% or so got no clear call; they are omitted. Calls come from the whole dose curve. This excerpt belongs to a sample that is enriched for actives.
Possible outcomes: T for active, F for inactive

molecule	answer.label
O=C(/C=C/c1ccco1)NC(=S)Nc1ccccc1Br	F
Cc1ccccc1C(OCC(O)CN1CCCCC1CCO)c1ccccc1 (configuration not stated)	T
COc1ccc(/C=C2\SC(=O)N(CCC(=O)NC3CCS(=O)(=O)C3)C2=O)cc1 (configuration not stated)	F
COc1cccc(CN(C)CC(O)COC(c2ccccc2)c2ccccc2C)c1 (configuration not stated)	F
COc1ccc(S(=O)(=O)Nc2c(C)n(C)n(-c3ccccc3)c2=O)cc1	T
O=[N+]([O-])c1ccc(O)c(/C=N/Nc2ccccc2[N+](=O)[O-])c1	F
COc1cccc(OCc2cc(C(=O)N3CCN(C(=O)c4ccco4)CC3)no2)c1	F
O=C(CC(n1cncn1)C(Cl)(Cl)Cl)c1ccc([N+](=O)[O-])cc1 (configuration not stated)	F
COc1cccc(-c2nc(CS(=O)CC(=O)NCc3ccc(F)cc3)c(C)o2)c1 (configuration not stated)	F
COCCCNC(=S)N1CCN(c2nc(-c3cccc(OC)c3)cs2)CC1	F
O=C(Nc1nnc(C2=COCCO2)o1)c1ccc([N+](=O)[O-])s1	F
O=C(CSc1nc2ccccc2c(=O)[nH]1)Nc1nc(-c2ccc(Br)cc2)cs1	F
COc1ccc(-c2nc(CS(=O)CC(=O)NCc3ccccn3)c(C)o2)cc1 (configuration not stated)	T
O=C(CSc1nnnn1C1CCCC1)N1CCCCC1	F
COc1ccc(CNS(=O)(=O)c2ccc(NC(=O)N3CCCCC3)cc2)cc1	F
CC(C)OCC(O)CN1CCN(C(c2ccccc2)c2ccccc2)CC1 (configuration not stated)	F
CC(C)(C)c1ccc(CN2C(=O)c3ccccc3S2(=O)=O)cc1	F
